# Emax per record follows
target_system: hPPARdelta (Homo sapiens, UniProt Q03181)
Construct: expressed in transfected cells; host or cells: COS-7 (monkey kidney fibroblasts)
Sequence (Q03181 211-439 limits assumed): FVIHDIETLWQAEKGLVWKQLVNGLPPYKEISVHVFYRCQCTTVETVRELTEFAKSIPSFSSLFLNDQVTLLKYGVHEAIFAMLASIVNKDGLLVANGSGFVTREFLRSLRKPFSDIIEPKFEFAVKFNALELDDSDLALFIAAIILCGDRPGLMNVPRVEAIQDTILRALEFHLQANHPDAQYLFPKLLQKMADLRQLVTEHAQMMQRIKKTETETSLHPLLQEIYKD
procedure_details: PPAR activation: Gal4-hPPARδ chimera luciferase transactivation in COS-7 cells, Method 2
Format: cell-based
applied_conditions: COS-7, 24 h, maximum percentage response relative to the reference GW501516, read-out: hPPARdelta % max
Express the result in % but write the number alone.

Observe how each entry below is paired with its result.
{"compound": "CC(C)(Oc1ccc(CCC(=O)c2ccc(-c3ccc(C(F)(F)F)cc3)o2)c(Cl)c1Cl)C(=O)O", "observable": "Emax", "assay_value": 89}
{"compound": "CCC(Oc1ccc(CCC(O)c2ccc(-c3ccc(C(F)(F)F)cc3)s2)cc1F)C(=O)O (stereo not shown)", "observable": "Emax", "assay_value": 80}
{"compound": "COC(CCc1ccc(OC(C)(C)C(=O)O)c(Cl)c1Cl)c1ccc(-c2ccc(C(F)(F)F)cc2)o1 (stereo not shown)", "observable": "Emax", "assay_value": 97}

Let us move to another entry and its Emax.
Q: Which value of Emax has been reported for CC(C)(Oc1ccc(CCC(OCc2ccccc2)c2ccc(-c3ccc(C(F)(F)F)cc3)s2)c(Cl)c1Cl)C(=O)O (stereo not shown) in the records?
Ans: 92

====

# maps each entry to its Emax
target_system: hPPARgamma (Homo sapiens)
Construct: expressed in transfected cells; host or cells: COS-7 (monkey kidney fibroblasts)
Sequence (P37231 238-503 limits assumed): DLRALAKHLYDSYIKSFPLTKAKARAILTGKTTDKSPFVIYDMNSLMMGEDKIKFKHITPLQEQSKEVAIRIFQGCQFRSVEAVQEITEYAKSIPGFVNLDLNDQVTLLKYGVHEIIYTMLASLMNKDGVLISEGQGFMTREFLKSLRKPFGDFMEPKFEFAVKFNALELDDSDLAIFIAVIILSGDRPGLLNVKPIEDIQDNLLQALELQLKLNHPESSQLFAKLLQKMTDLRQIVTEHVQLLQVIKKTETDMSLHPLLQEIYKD
procedure_details: PPAR activation: Gal4-hPPARγ chimera luciferase transactivation in COS-7 cells, Method 2
Type: cell-based
applied_conditions: COS-7, 24 h; maximum percentage response relative to the reference rosiglitazone; Method 2; read-out: hPPARgamma % max

The examples below pair each entry with its known result.
{"molecule": "CC(C)(Oc1ccc(CCC(=O)c2ccc(-c3ccccc3)s2)c(Cl)c1Cl)C(=O)O [Compound 57]", "target_system": "hPPARgamma (Homo sapiens)", "assay_value": "39%"}
{"molecule": "CC(C)(Oc1ccc(CCC(OCc2ccccc2)c2ccc(-c3ccc(C(F)(F)F)cc3)s2)c(Cl)c1Cl)C(=O)O (stereo not shown) [Compound 7]", "target_system": "hPPARgamma (Homo sapiens)", "assay_value": "40%"}
{"molecule": "CC(C)(Oc1ccc(CCC(=O)c2ccc(-c3ccc(Br)cc3)s2)c(Cl)c1Cl)C(=O)O [Compound 52]", "target_system": "hPPARgamma (Homo sapiens)", "assay_value": "57%"}

Q: // fetch hPPARgamma (Homo sapiens) Emax for CC(C)(Oc1ccc(CCC(=O)c2ccc(-c3ccc(C(F)(F)F)cc3)s2)cc1)C(=O)O [Compound 67]
Ans: 37%

====

target_system: hPPARdelta (Homo sapiens)
Construct: expressed in transfected cells; host or cells: COS-7 (monkey kidney fibroblasts)
procedure_details: PPAR activation: Gal4-hPPARδ chimera luciferase transactivation in COS-7 cells, Method 1
Format: cell-based
applied_conditions: COS-7, 24 h, maximum percentage response relative to the reference GW501516, read-out: hPPARdelta % max
observable: Emax
Answer with the number, then the unit.

Worked cases, Emax given:
{"compound": "CCC(Oc1ccc(CCC(=O)c2ccc(-c3ccc(C(F)(F)F)cc3)s2)cc1F)C(=O)O (stereo not drawn)", "Emax": "88%"}
{"compound": "CC(C)(Oc1ccc(CCC(=O)c2cc(-c3ccc(C(F)(F)F)cc3)cs2)c(Cl)c1Cl)C(=O)O", "Emax": "105%"}
{"compound": "CCC(Oc1ccc(CCC(=O)c2ccc(-c3ccc(C(F)(F)F)cc3)s2)cc1)C(=O)O (stereo not drawn)", "Emax": "79%"}
{"compound": "CCC(Oc1ccc(CCC(OCc2ccccc2)c2ccc(-c3ccc(C(F)(F)F)cc3)s2)cc1F)C(=O)O (stereo not drawn)", "Emax": "67%"}
{"compound": "CC(C)(Oc1ccc(CCC(=O)c2ccc(-c3ccc(C(F)(F)F)cc3)s2)cc1Br)C(=O)O", "Emax": "85%"}

Q: Recorded Emax of CC(C)(Oc1ccc(CCC(=NO)c2ccc(-c3ccc(C(F)(F)F)cc3)s2)c(Cl)c1Cl)C(=O)O (mixture of isomers) , please.
Ans: 93%

Q: Given O=C(O)COc1ccc(CCC(OCc2ccccc2)c2ccc(-c3ccc(C(F)(F)F)cc3)s2)cc1F (stereo not drawn) , state its recorded Emax.
Ans: 77%

Q: // Emax lookup, key: CC(C)(Oc1ccc(CCC(=O)c2ccc(-c3ccc(C(F)(F)F)cc3)s2)cc1Cl)C(=O)O
Ans: 85%

Q: Which Emax is reported for this compound? O=C(O)COc1ccc(CCC(=O)c2ccc(-c3ccc(C(F)(F)F)cc3)s2)cc1Br
Ans: 95%

====

target_system: hPPARdelta (Homo sapiens)
Construct: expressed in transfected cells; host or cells: COS-7 (monkey kidney fibroblasts)
procedure_details: PPAR activation: Gal4-hPPARδ chimera luciferase transactivation in COS-7 cells, Method 1
Assay type: cell-based
applied_conditions: COS-7, 24 h
Procedure: The activation of the PPARs was evaluated in vitro on a line of monkey kidney fibroblasts (COS-7) by measuring the transcriptional activity of chimeras constituted of the DNA binding domain of the Gal4 transcription factor of yeast and the ligand binding domain of the various PPARs. The compounds were tested at doses between 10^−5 and […] on the chimeras Gal4-PPARα, γ or δ, and the corresponding EC50 values were determined. […]
Below is a list of entries, each paired with its recorded EC50 value.
Provide the reading as a plain figure in nM.

Q: Quick check: EC50 of CCC(Oc1ccc(CCC(=O)c2ccc(-c3ccc(C(F)(F)F)cc3)s2)cc1Br)C(=O)O (stereo not drawn) ?
Ans: 36

Q: Which EC50 is listed for O=C(O)COc1ccc(CCC(=O)c2ccc(-c3ccc(C(F)(F)F)cc3)s2)c(Cl)c1Cl ?
Ans: 253

====

Attribute: Emax
target_system: hPPARalpha (Homo sapiens, UniProt Q07869)
Construct: expressed in transfected cells; host or cells: COS-7 (monkey kidney fibroblasts)
Sequence (Q07869 239-466 limits assumed): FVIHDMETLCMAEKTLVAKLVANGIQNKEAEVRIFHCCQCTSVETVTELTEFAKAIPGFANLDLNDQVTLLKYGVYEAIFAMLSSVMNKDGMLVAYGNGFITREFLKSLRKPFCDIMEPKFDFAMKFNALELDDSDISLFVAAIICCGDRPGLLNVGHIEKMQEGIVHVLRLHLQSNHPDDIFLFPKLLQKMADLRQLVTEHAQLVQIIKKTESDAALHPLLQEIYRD
procedure_details: PPAR activation: Gal4-hPPARα chimera luciferase transactivation in COS-7 cells, Method 2
Assay type: cell-based
applied_conditions: COS-7, 24 h, maximum percentage response relative to the reference phenofibric acid, read-out: hPPARalpha % max
Reply with just the number (in %).

Reference set, count: 2
{"molecule": "CC(C)(Oc1ccc(CCC(=O)c2ccc(-c3ccccc3)s2)c(Cl)c1Cl)C(=O)O", "observable": "Emax", "assay_value": 44}
{"molecule": "CC(C)(Oc1ccc(CCC(OCc2cccnc2)c2ccc(-c3ccc(C(F)(F)F)cc3)s2)c(Cl)c1Cl)C(=O)O (stereo not shown)", "observable": "Emax", "assay_value": 36}

Q: Reported Emax for CON=C(CCc1ccc(OC(C)(C)C(=O)O)c(Cl)c1Cl)c1ccc(-c2ccc(C(F)(F)F)cc2)s1 (mixture of isomers) : what is it?
Ans: 38

Q: Field request: Emax | item: CSc1ccc(-c2ccc(C(=O)CCc3ccc(OC(C)(C)C(=O)O)c(Cl)c3Cl)s2)cc1
Ans: 43

====

The entries below are paired with their reported melting point.

# count of solved cases: 2
{"compound": "CC(C)(Oc1ccc(CCC(=O)c2ccc(-c3ccc(Br)cc3)s2)c(Cl)c1Cl)C(=O)O", "assay_value": "155 to 157 °C"}
{"compound": "CCC(Oc1ccc(CCC(=O)c2ccc(-c3ccc(C(F)(F)F)cc3)s2)cc1F)C(=O)O (stereo not shown)", "assay_value": "119 to 120 °C"}

Q: Please report the recorded melting point for CC(C)(Oc1ccc(CCC(=O)c2ccc(-c3ccc(C(F)(F)F)cc3)s2)c(F)c1F)C(=O)O .
Ans: 165 to 166 °C

Q: Data request, read-out melting point, for CC(C)(Oc1ccc(CCC(=O)c2ccc(-c3ccc(C(F)(F)F)cc3)o2)c(Cl)c1Cl)C(=O)O
Ans: 85 °C

====

target_system: hPPARalpha (Homo sapiens, UniProt Q07869)
Construct: expressed in transfected cells; host or cells: COS-7 (monkey kidney fibroblasts)
procedure_details: PPAR activation: Gal4-hPPARα chimera luciferase transactivation in COS-7 cells, Method 1
Type: cell-based
applied_conditions: COS-7, 24 h, maximum percentage response relative to the reference phenofibric acid, read-out: hPPARalpha % max
Decision: Emax compared against 50%; not below it gives Yes, below it gives No.

Solved entries:
{"compound": "CC(C)(Oc1ccc(CCC(=O)c2ccc(-c3ccc(C(F)(F)F)cc3)s2)c(F)c1F)C(=O)O", "category_label": "Yes"}
{"compound": "CCC(Oc1ccc(CCC(=O)c2ccc(-c3ccc(C(F)(F)F)cc3)s2)cc1Br)C(=O)O (stereo not shown)", "category_label": "Yes"}
{"compound": "CCC(Oc1ccc(CCC(=O)c2ccc(-c3ccc(C(F)(F)F)cc3)s2)cc1)C(=O)O (stereo not shown)", "category_label": "Yes"}
{"compound": "CCC(Oc1ccc(CCC(=O)c2ccc(-c3ccc(C(F)(F)F)cc3)s2)c(Cl)c1Cl)C(=O)O (stereo not shown)", "category_label": "Yes"}
{"compound": "CCC(Oc1ccc(CCC(OCc2ccccc2)c2ccc(-c3ccc(C(F)(F)F)cc3)s2)cc1F)C(=O)O (stereo not shown)", "category_label": "No"}
{"compound": "O=C(CCc1ccc(OC(C(=O)O)c2ccccc2)c(Cl)c1Cl)c1ccc(-c2ccc(C(F)(F)F)cc2)s1 (stereo not shown)", "category_label": "No"}
{"compound": "CC(C)(Oc1ccc(CCC(=NO)c2ccc(-c3ccc(C(F)(F)F)cc3)s2)c(Cl)c1Cl)C(=O)O (mixture of isomers)", "category_label": "No"}

Could you now consider this next compound?
Q: # check: Emax of O=C(O)COc1ccc(CCC(=O)c2ccc(-c3ccc(C(F)(F)F)cc3)s2)cc1Br is greater than or equal to 50%
Ans: Yes

Recorded values, source patent US8088819B2.
